- Test system: 186277-243-T-J2-PDC complex spheroids, viability
- assay_name: Anticancer human tumor 186277-243-T-J2-PDC patient-derived colon adenocarcinoma cell line growth inhibition [RAS]
- condition_description: second compound 0.00316 µM; first compound 1 µM; hits give low values
- From the text: RAS pathway inhibitors in Combinations in Complex Spheroids A high-throughput screen of multi-cell type tumor spheroids was designed to identify active combinations of RAS pathway inhibitors and targeted small molecules. Complex spheroids include a stromal component modeled by human endothelial cells (HUVEC) and fibroblasts modeled by human mesenchymal stem cells (MSCs). […] Compounds. […] If the clinical Cmax for an agent had not been determined, the highest concentration tested was 10 microM. […]
measure: viability, T/C

Example cases with answers are listed next.
molecule: CC(Nc1ccc2c(c1)OCCn1cc(N3C(=O)OCC3C(F)F)nc1-2)C(N)=O (stereo not drawn) + C=CC(=O)N1CCN(c2nc(OCC3CCCN3C)nc3c(F)c(-c4nc(N)cc(C)c4C(F)(F)F)c(Cl)cc23)C(C)C1
target_under_test: 186277-243-T-J2-PDC complex spheroids, viability
endpoint_result: 40.8%
//
molecule: C=CC(=O)Nc1cc(Nc2nccc(-c3cn(C)c4ccccc34)n2)c(OC)cc1N(C)CCN(C)C + C=CC(=O)N1CCN(c2nc(OCC3CCCN3C)nc3c(F)c(-c4nc(N)cc(C)c4C(F)(F)F)c(Cl)cc23)C(C)C1
target_under_test: 186277-243-T-J2-PDC complex spheroids, viability
endpoint_result: 110%

--- query ---
Query: Provide value of viability, T/C for this record tested with 186277-243-T-J2-PDC complex spheroids, viability: CCC(CC)c1cc(NC2CCC(N)C2)n2nccc2n1 (stereo not drawn) + C=CC(=O)N1CCN(c2nc(OCC3CCCN3C)nc3c(F)c(-c4nc(N)cc(C)c4C(F)(F)F)c(Cl)cc23)C(C)C1
Result: 117%

###

Property: viability, T/C; scope: individual molecules
- Test system: 186277-243-T-J2-PDC complex spheroids, viability
- assay_name: Anticancer human tumor 186277-243-T-J2-PDC cell line growth inhibition [RAS];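 note: spheroids exposed to compounds for 7 days before viability read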
- condition_description: second compound 0.316 µM; first compound 0.316 µM; hits give low values
Just the number in %, nothing appended.

Example cases with answers are listed next.
molecule: CCC(CC)c1cc(NC2CCC(N)C2)n2nccc2n1 (stereo not drawn) + C#Cc1c(F)ccc2cc(O)cc(-c3ncc4c(N5CC6CCC(C5)N6)nc(OCC56CCCN5CC(F)C6)nc4c3F)c12
unit_spec: %
viability, T/C: 33.4

molecule: Cc1nc(N2CCC3(CC2)COC(C)C3N)c(CO)nc1Sc1ccnc(N)c1Cl (stereo not drawn) + C=CC(=O)N1CCN(c2nc(OCC3CCCN3C)nc3c(F)c(-c4nc(N)cc(C)c4C(F)(F)F)c(Cl)cc23)C(C)C1
unit_spec: %
viability, T/C: 104

--- query ---
Query: What value of viability, T/C has been reported for the following molecule? CC1(O)CCCC1n1c(=O)c(C(F)F)cc2cnc(NC3CCN(S(C)(=O)=O)CC3)nc21 (stereo not drawn) + C=CC(=O)N1CCN(c2nc(OCC3CCCN3C)nc3c(F)c(-c4nc(N)cc(C)c4C(F)(F)F)c(Cl)cc23)C(C)C1
Result: 88.1

###

- System: 186277-243-T-J2-PDC complex spheroids, viability
- assay_name: Anticancer human tumor 186277-243-T-J2-PDC cell line growth inhibition [RAS];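 note: spheroids exposed to compounds for 7 days before viability read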
- condition_description: second compound 1 µM; first compound 0.316 µM; hits give low values
measure: viability, T/C (%)
Just the number in %, nothing appended.

Example cases with answers are listed next.
compound: CC1(O)CCCC1n1c(=O)c(C(F)F)cc2cnc(NC3CCN(S(C)(=O)=O)CC3)nc21 (centres undefined) + C=CC(=O)N1CCN(c2nc(OCC3CCCN3C)nc3c(F)c(-c4nc(N)cc(C)c4C(F)(F)F)c(Cl)cc23)C(C)C1
viability, T/C (%): 94.9

compound: CC(C)NCC(C(=O)N1CCN(c2ncnc3c2C(C)CC3O)CC1)c1ccc(Cl)cc1 (centres undefined) + C=CC(=O)N1CCN(c2nc(OCC3CCCN3C)nc3c(F)c(-c4nc(N)cc(C)c4C(F)(F)F)c(Cl)cc23)C(C)C1
viability, T/C (%): 87.5

compound: CC(=O)OC12COC1CC(O)C1(C)C(=O)C(O)C3=C(C)C(OC(=O)C(O)C(NC(=O)OC(C)(C)C)c4ccccc4)CC(O)(C(OC(=O)c4ccccc4)C21)C3(C)C (centres undefined) + C#Cc1c(F)ccc2cc(O)cc(-c3ncc4c(N5CC6CCC(C5)N6)nc(OCC56CCCN5CC(F)C6)nc4c3F)c12
viability, T/C (%): 4.17

compound: Cc1nc(N2CCC3(CC2)COC(C)C3N)c(CO)nc1Sc1ccnc(N)c1Cl (centres undefined) + C#Cc1c(F)ccc2cc(O)cc(-c3ncc4c(N5CC6CCC(C5)N6)nc(OCC56CCCN5CC(F)C6)nc4c3F)c12
viability, T/C (%): 8.18

compound: O=C(c1ccc(F)c(F)c1Nc1ccc(I)cc1F)N1CC(O)([C@@H]2CCCCN2)C1 + C#Cc1c(F)ccc2cc(O)cc(-c3ncc4c(N5CC6CCC(C5)N6)nc(OCC56CCCN5CC(F)C6)nc4c3F)c12
viability, T/C (%): 4.16

compound: C[C@@H](NC(=O)c1ncnc(N)c1Cl)c1ncc(C(=O)Nc2cc(C(F)(F)F)c(Cl)cn2)s1 + C#Cc1c(F)ccc2cc(O)cc(-c3ncc4c(N5CC6CCC(C5)N6)nc(OCC56CCCN5CC(F)C6)nc4c3F)c12
viability, T/C (%): 22.7

compound: C=CC(=O)Nc1cc(Nc2nccc(-c3cn(C)c4ccccc34)n2)c(OC)cc1N(C)CCN(C)C + C=CC(=O)N1CCN(c2nc(OCC3CCCN3C)nc3c(F)c(-c4nc(N)cc(C)c4C(F)(F)F)c(Cl)cc23)C(C)C1
viability, T/C (%): 82.1

compound: CC(=O)OC12COC1CC(O)C1(C)C(=O)C(O)C3=C(C)C(OC(=O)C(O)C(NC(=O)OC(C)(C)C)c4ccccc4)CC(O)(C(OC(=O)c4ccccc4)C21)C3(C)C (centres undefined) + C=CC(=O)N1CCN(c2nc(OCC3CCCN3C)nc3c(F)c(-c4nc(N)cc(C)c4C(F)(F)F)c(Cl)cc23)C(C)C1
viability, T/C (%): 9.31

Query: What value of viability, T/C has been reported for the following compound? C=CC(=O)Nc1cc(Nc2nccc(-c3cn(C)c4ccccc34)n2)c(OC)cc1N(C)CCN(C)C + C#Cc1c(F)ccc2cc(O)cc(-c3ncc4c(N5CC6CCC(C5)N6)nc(OCC56CCCN5CC(F)C6)nc4c3F)c12
Result: 8.84
